# Test system: mouse splenocytes
# test name: in vitro stimulation of mouse splenocytes/lymphocytes, cytokine release measured in supernatant by protein microarray chip
# Format: cell-based
# condition set: mouse splenocytes, five days; preliminary data
Exercise: for every item that follows, state its recorded G-CSF induced (summary / preliminary data).
A number alone suffices; assume pg/mL.

Item: COc1ccc(C2C3=C(COC3=O)N(CCO)c3cc4c(cc32)OCO4)cc1OC (stereo not shown) | G-CSF induced (summary / preliminary data): 2208

Item: COc1cccc(C2C3=C(COC3=O)N(CCO)c3cc4c(cc32)OCO4)c1 (stereo not shown) | G-CSF induced (summary / preliminary data): 2575

Item: COc1cc(C2C3=C(COC3=O)N(CCO)c3cc4c(cc32)CCC4)cc(OC)c1O (stereo not shown) | G-CSF induced (summary / preliminary data): 7166

Item: O=C1OCC2=C1C(c1ccccc1)c1cc3c(cc1N2CCO)OCO3 (stereo not shown) | G-CSF induced (summary / preliminary data): 2071

* * *

Exercise: for every item that follows, state its recorded IL-6 produced.
# Test system: mouse splenocytes
# test name: in vitro stimulation of mouse splenocytes/lymphocytes, cytokine release measured in supernatant by protein microarray chip
# Type: cell-based
# condition set: mouse splenocytes, five days; Example 1 and b94-b99
A number alone suffices; assume pg/mL.

Item: COc1ccc(C2C3=C(COC3=O)N(CCO)c3cc4c(cc32)OCO4)cc1OC (stereo not shown) | IL-6 produced: 257

Item: COc1ccc(C2C3=C(COC3=O)N(CCO)c3cc4c(cc32)OCCO4)c(OC)c1OC (stereo not shown) | IL-6 produced: 184

Item: COc1cccc(C2C3=C(COC3=O)N(CCO)c3cc4c(cc32)OCCO4)c1OC (stereo not shown) | IL-6 produced: 270

Item: COc1cccc(C2C3=C(COC3=O)N(CCO)c3cc4c(cc32)OCO4)c1 (stereo not shown) | IL-6 produced: 375
